Test system: UACC-257 melanoma
Experiment: NCI-60 one-dose screen, 48 h (100 = growth as untreated, 0 = no growth, -100 = all killed)
Details: 10 µM unless noted
About 83,000 compounds went through this panel and 20% of them were active in at least one assay; those are over-represented in the sample as a whole.
Parameter: growth (%)
Please give a number only; it is taken to be in %.

{"columns": ["Compound", "growth (%)"],
 "data": [
  ["O=c1oc2ccc(F)cc2c(=O)n1-c1ccc(F)cc1F", 17.5],
  ["CNC(=O)c1cc(Oc2ccc(CC(=O)Nc3cc(C(C)(C)C)cn3C)cc2)ccn1", 56.5],
  ["CCCCN1CCN(c2ccc3nc(-c4ccc5nc(-c6ccc(OCC)cc6)[nH]c5c4)[nH]c3c2)CC1", 68.2],
  ["CC(=O)c1ccc(Nc2nc(NCCO)nc(Nc3ccc(Cl)cc3)n2)cc1", 88.4],
  ["Clc1ccc(Nc2nnc(-c3ccc4c(c3)OCO4)o2)cc1", 100],
  ["Cc1[nH]c2ccccc2c(=O)c1CC=C(Cl)Cl", 99.5],
  ["COc1c2ccoc2c(/C=C/C=O)c2oc(-c3ccccc3)cc(=O)c12", 108],
  ["COc1ccc(-c2cn[nH]c2-c2cc(OC)c(OC)c(OC)c2)cc1OCc1ccccc1", 47.6]
]}

Task: growth lookup needed for COc1cc(C(C)n2cc(-c3ccccc3)nn2)ccc1OC1CCCCC1 (centres undefined) , thanks.
Result: 52.1

Task: What measured growth goes with COc1ccccc1N1C(=N)S/C(=C\c2ccc(OCc3ccccc3F)cc2)C1=O ?
Result: 90.9
